So I've got a bunch of compounds here, and I need their IC50 values.
Target: UniProtKB P03951
Sequence (P03951 whole entry, looked up): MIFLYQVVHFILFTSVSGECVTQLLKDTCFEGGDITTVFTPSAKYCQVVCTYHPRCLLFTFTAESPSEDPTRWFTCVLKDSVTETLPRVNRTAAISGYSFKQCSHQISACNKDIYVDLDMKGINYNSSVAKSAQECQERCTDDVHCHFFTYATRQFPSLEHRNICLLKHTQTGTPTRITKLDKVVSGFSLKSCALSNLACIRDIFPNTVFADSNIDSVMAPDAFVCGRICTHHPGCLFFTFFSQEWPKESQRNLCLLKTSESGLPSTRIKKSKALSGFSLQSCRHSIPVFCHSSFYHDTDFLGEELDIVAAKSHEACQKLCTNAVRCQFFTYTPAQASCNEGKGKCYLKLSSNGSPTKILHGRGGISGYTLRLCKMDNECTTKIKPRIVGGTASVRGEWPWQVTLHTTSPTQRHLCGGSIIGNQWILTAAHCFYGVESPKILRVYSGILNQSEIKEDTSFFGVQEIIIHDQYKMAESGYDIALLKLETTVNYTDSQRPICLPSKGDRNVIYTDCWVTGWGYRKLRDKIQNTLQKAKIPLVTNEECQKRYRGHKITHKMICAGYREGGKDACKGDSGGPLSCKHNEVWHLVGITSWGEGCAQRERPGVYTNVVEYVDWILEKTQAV
Sequence (P03951 whole entry partner, looked up): as the sequence (P03951 whole entry, looked up) above

Consider the following illustrative entries.
CCC(C(=O)Nc1ccc(C(=O)O[C@H]2CCN[C@@H]2C(=O)O)cc1)n1cc(OC)c(-c2cc(Cl)ccc2C#N)cc1=O (single isomer, unassigned) [Example 10]: 14 nM
CCC(C(=O)Nc1ccc(C(=O)OC2CCN(C)CC2)cc1)n1cc(OC)c(-c2cc(Cl)ccc2C#N)cc1=O (single isomer, unassigned) [Example 13]: 230 nM
CCC(C(=O)Nc1ccc(C(=O)OC(C)[C@H](N)C(=O)O)cc1)n1cc(OC)c(-c2cc(Cl)ccc2C#N)cc1=O (single isomer, unassigned) [Example 2]: 54 nM
CCC(C(=O)Nc1ccc(C(=O)OCCC2CCNCC2)cc1)n1cc(OC)c(-c2cc(Cl)ccc2C#N)cc1=O (single isomer, unassigned) [Example 15]: 230 nM
CCC(C(=O)Nc1ccc(C(=O)OC[C@H](NC(=O)CN2CCCC2)C(=O)O)cc1)n1cc(OC)c(-c2cc(Cl)ccc2C#N)cc1=O (single isomer, unassigned) [Example 5]: 60 nM
COc1cn(C(C[C@@H]2CCCCO2)C(=O)Nc2ccc(C(=O)OC(C)[C@H](N)C(=O)O)cc2)c(=O)cc1-c1cc(Cl)ccc1C#N (single isomer, unassigned) [Example 1]: 2 nM
CCC(C(=O)Nc1ccc(C(=O)OC[C@H](NC(=O)C2(N(C)C)CC2)C(=O)O)cc1)n1cc(OC)c(-c2cc(Cl)ccc2C#N)cc1=O (single isomer, unassigned) [Example 8]: 110 nM
CCC(C(=O)Nc1ccc(C(=O)OC[C@H](NC(=O)[C@@H]2CCCN2)C(=O)O)cc1)n1cc(OC)c(-c2cc(Cl)ccc2C#N)cc1=O (some centres unmarked) [Example 6]: 65 nM

Field: IC50. Fill in for each record below.
1. CCC(C(=O)Nc1ccc(C(=O)OC[C@H](N)C(=O)O)cc1)n1cc(OC)c(-c2cc(Cl)ccc2C#N)cc1=O (single isomer, unassigned) [Example 4]
2. CCC(C(=O)Nc1ccc(C(=O)OC[C@](C)(N)C(=O)O)cc1)n1cc(OC)c(-c2cc(Cl)ccc2C#N)cc1=O (single isomer, unassigned) [Example 3]

*A*
1. 54 nM
2. 82 nM

# IC50 (compound: CCC(C(=O)Nc1ccc(C(=O)OC[C@H](NC(=O)C2CCCCN2C)C(=O)O)cc1)n1cc(OC)c(-c2cc(Cl)ccc2C#N)cc1=O (single isomer, unassigned) [Example 7] ) is 91 nM
